Tested on: IL-6
run description: IL-6 in supernatants of LPS-primed, nigericin-treated THP1 macrophages, Hu IL-6 AlphaLISA
Type: cell-based
protocol conditions: Homo sapiens, THP-1, PMA-differentiated, 1 hr compound, Nigericin 6.7 uM 3 hrs, IL-6 in supernatant
pIC50: −log10 of the molar value.
Overview of recorded pIC50 for various compounds

Worked examples, 2 compounds total:
CN1CCC[C@@H](Nc2nnc(-c3ccc(C(F)(F)F)cc3C(F)F)c3cnn(C)c23)C1 ... ≤ 5.00
CN1CCC[C@@H](Nc2nnc(-c3ccc(C(F)(F)F)cc3)c3sncc23)C1 ... 5.00 to 5.30

input: Query (compound): CN1CCC[C@@H](Nc2nnc(-c3ccc(C(F)(F)F)cc3)c3nc[nH]c23)C1 ; field requested: pIC50
output: ≤ 5.00

input: Query (compound): Cc1c[nH]c2c(-c3ccc(F)cc3)nnc(N[C@@H]3CCCN(C)C3)c12 ; field requested: pIC50
output: ≤ 5.00

input: Query (compound): Cc1c[nH]c2c(N[C@@H]3CCCN(C)C3)nnc(-c3ccc(F)cc3)c12 ; field requested: pIC50
output: ≤ 5.00

----------
Test system: IL-6
run description: IL-6 in supernatants of LPS-primed, nigericin-treated THP1 macrophages, Hu IL-6 AlphaLISA
Type: cell-based
protocol conditions: Homo sapiens, THP-1, PMA-differentiated, 1 hr compound, Nigericin 6.7 uM 3 hrs, IL-6 in supernatant
Overview of recorded IC50 for various compounds

C[N+]1(C)CCC[C@@H](Nc2nnc(-c3ccc(C(F)(F)F)cc3)c3nc[nH]c23)C1 ... ≥ 10 µM

input: // fetch IL-6 IC50 for CN1CCC[C@@H](Nc2nnc(-c3ccc(C(F)(F)F)cc3)c3c2CCC3)C1
output: 5 to 10 µM

input: // fetch IL-6 IC50 for CN1CCC[C@@H](Oc2nnc(-c3ccc(C(F)(F)F)cc3)c3cc[nH]c23)C1
output: 5 to 10 µM

input: // fetch IL-6 IC50 for CN1CCC[C@@H](Oc2nnc(-c3ccc(F)cc3O)c3ccn(C)c23)C1
output: ≥ 10 µM

input: // fetch IL-6 IC50 for CN(C)CCN1CCC[C@@H](Nc2nnc(-c3ccc(C#N)cc3O)c3ccn(C)c23)C1
output: ≥ 10 µM

----------
target or test system: NLRP3 inflammasome (Homo sapiens)
run description: NLRP3 inflammasome activation in LPS-primed, nigericin-activated THP1 macrophages, IL-1β AlphaLISA
protocol conditions: PMA-differentiated, 1 hr compound, Nigericin 6.7 uM 3 hrs, IL-1β in supernatant
Overview of recorded IC50 for various compounds

Worked examples, 3 compounds total:
CN1CCC[C@@H](Nc2nnc(-c3ccc(C#N)cc3Cl)c3ccn(C)c23)C1 ... 100 to 500 nM
CN1CCC[C@@H](N(C)c2nnc(-c3ccc(F)cc3O)c3ccn(C)c23)C1 ... 100 to 500 nM
CN1CCC[C@@H](N(C)c2nnc(-c3ccc(F)cc3O)c3ccoc23)C1 ... 100 to 500 nM

input: Query (compound): N#Cc1ccc(-c2nnc(N[C@@H]3CCCN(CCO)C3)c3sncc23)c(O)c1 ; field requested: IC50
output: < 10 nM

----------
target or test system: NLRP3 inflammasome (Homo sapiens)
run description: NLRP3 inflammasome activation in LPS-primed, nigericin-activated THP1 macrophages, IL-1β AlphaLISA
protocol conditions: PMA-differentiated, 1 hr compound, Nigericin 6.7 uM 3 hrs, IL-1β in supernatant
pIC50: −log10 of the molar value.
Overview of recorded pIC50 for various molecules

Worked examples, 2 molecules total:
Cn1ccc2c(-c3ccc(C#N)cc3O)nnc(N[C@@H]3CCCN(c4ccncc4)C3)c21 ... 5.00 to 6.00
CN(C)CCN1CCC[C@@H](Nc2nnc(-c3ccc(C#N)cc3O)c3ccn(C)c23)C1 ... 7.00 to 8.00

Turning now to a further molecule:
input: Query (molecule): CN1CCC[C@@H](Nc2nnc(-c3ncc(C(F)(F)F)cc3O)c3ccn(C)c23)C1 ; field requested: pIC50
output: 5.00 to 6.00

----------
target or test system: NLRP3 inflammasome (Homo sapiens)
Construct: host or cells: THP1 human acute monocytic leukemia cells, PMA-differentiated, LPS-primed
run description: NLRP3 inflammasome activation in LPS-primed, nigericin-activated THP1 macrophages, IL-1β AlphaLISA
Type: cell-based
protocol conditions: PMA-differentiated, 1 hr compound, Nigericin 6.7 uM 3 hrs, IL-1β in supernatant
pIC50: −log10 of the molar value.
quantity name: pIC50

Worked examples, 3 compounds total:
CCN1CCC[C@@H](Nc2nnc(-c3ccc(C#N)cc3O)c3ccn(C)c23)C1 [Compound 103] ... > 8.00
CN1CCC[C@@H](Nc2nnc(-c3ccc(C(F)(F)F)cc3)c3sncc23)C1 [Compound 64] ... 7.00 to 8.00
CN1CCC[C@@H](Nc2nnc(-c3ccc(C(F)(F)F)cc3)c3cc[nH]c23)C1 (single isomer, unassigned) [Compound 1] ... > 8.00

input: // fetch NLRP3 inflammasome (Homo sapiens) pIC50 for Cc1cc(C(F)(F)F)ccc1-c1nnc(N[C@@H]2CCCN(C)C2)c2cc[nH]c12 [Compound 3]
output: 6.00 to 6.30

input: // fetch NLRP3 inflammasome (Homo sapiens) pIC50 for CN1CCC[C@@H](Nc2nnc(-c3ccc(C(F)(F)F)cc3)c3c2CCO3)C1 [Compound 59]
output: ≤ 5.00

input: // fetch NLRP3 inflammasome (Homo sapiens) pIC50 for CN1CCC[C@@H](Nc2nnc(-c3ccc(C(F)(F)F)cc3)c3ncn(C)c23)C1 [Compound 30]
output: 5.00 to 6.00

input: // fetch NLRP3 inflammasome (Homo sapiens) pIC50 for CC(C)N1CCC[C@@H](Nc2nnc(-c3ncc(C#N)cc3O)c3ccn(C)c23)C1 [Compound 99]
output: > 8.00

input: // fetch NLRP3 inflammasome (Homo sapiens) pIC50 for CN1CCC[C@@H](Nc2nnc(-c3ncc(C#N)cc3O)c3cnn(C)c23)C1 [Compound 114]
output: 7.00 to 8.00

input: // fetch NLRP3 inflammasome (Homo sapiens) pIC50 for CN1CCC[C@@H](Nc2nnc(-c3ccc(C#N)cc3O)c3cnsc23)C1 [Compound 144]
output: > 8.00

input: // fetch NLRP3 inflammasome (Homo sapiens) pIC50 for CN1CCC[C@@H](Nc2nnc(-c3ccc(C(F)(F)F)cc3C(F)F)c3ccn(C)c23)C1 [Compound 122]
output: > 8.00

input: // fetch NLRP3 inflammasome (Homo sapiens) pIC50 for COc1cc(C)ccc1-c1nnc(N[C@@H]2CCCN(C)C2)c2c1cnn2C [Compound 167]
output: 5.00 to 6.00

input: // fetch NLRP3 inflammasome (Homo sapiens) pIC50 for CN1CCC[C@@H](Nc2nnc(-c3ncc(C(F)(F)F)cc3O)c3cnn(C)c23)C1 [Compound 166]
output: 7.00 to 8.00

input: // fetch NLRP3 inflammasome (Homo sapiens) pIC50 for Cc1cc(C(F)(F)F)cnc1-c1nnc(N[C@@H]2CCCN(C)C2)c2c1cnn2C [Compound 137]
output: 7.00 to 8.00

----------
System: IL-6
run description: IL-6 in supernatants of LPS-primed, nigericin-treated THP1 macrophages, Hu IL-6 AlphaLISA
Assay type: cell-based
protocol conditions: Homo sapiens, THP-1, PMA-differentiated, 1 hr compound, Nigericin 6.7 uM 3 hrs, IL-6 in supernatant
quantity name: IC50

input: Query (compound): Cc1cc(C(F)(F)F)cc(O)c1-c1nnc(N[C@@H]2CCCN(C)C2)c2c1ccn2C [Compound 143] ; field requested: IC50
output: ≤ 1 µM

input: Query (compound): Cn1ccc2c(-c3ccc(C#N)cc3O)nnc(N[C@@H]3CCCN(c4ccncc4)C3)c21 [Compound 162] ; field requested: IC50
output: ≥ 10 µM

input: Query (compound): CN1CCC[C@@H](Nc2nnc(-c3ccc(C#N)cc3)c3ccn(C)c23)C1 [Compound 79] ; field requested: IC50
output: ≥ 10 µM

input: Query (compound): CC(C)N1CCC[C@@H](Nc2nnc(-c3ncc(C#N)cc3O)c3ccn(C)c23)C1 [Compound 99] ; field requested: IC50
output: 5 to 10 µM

----------
target or test system: NLRP3 inflammasome (Homo sapiens, UniProt Q96P20)
Sequence (Q96P20 whole entry): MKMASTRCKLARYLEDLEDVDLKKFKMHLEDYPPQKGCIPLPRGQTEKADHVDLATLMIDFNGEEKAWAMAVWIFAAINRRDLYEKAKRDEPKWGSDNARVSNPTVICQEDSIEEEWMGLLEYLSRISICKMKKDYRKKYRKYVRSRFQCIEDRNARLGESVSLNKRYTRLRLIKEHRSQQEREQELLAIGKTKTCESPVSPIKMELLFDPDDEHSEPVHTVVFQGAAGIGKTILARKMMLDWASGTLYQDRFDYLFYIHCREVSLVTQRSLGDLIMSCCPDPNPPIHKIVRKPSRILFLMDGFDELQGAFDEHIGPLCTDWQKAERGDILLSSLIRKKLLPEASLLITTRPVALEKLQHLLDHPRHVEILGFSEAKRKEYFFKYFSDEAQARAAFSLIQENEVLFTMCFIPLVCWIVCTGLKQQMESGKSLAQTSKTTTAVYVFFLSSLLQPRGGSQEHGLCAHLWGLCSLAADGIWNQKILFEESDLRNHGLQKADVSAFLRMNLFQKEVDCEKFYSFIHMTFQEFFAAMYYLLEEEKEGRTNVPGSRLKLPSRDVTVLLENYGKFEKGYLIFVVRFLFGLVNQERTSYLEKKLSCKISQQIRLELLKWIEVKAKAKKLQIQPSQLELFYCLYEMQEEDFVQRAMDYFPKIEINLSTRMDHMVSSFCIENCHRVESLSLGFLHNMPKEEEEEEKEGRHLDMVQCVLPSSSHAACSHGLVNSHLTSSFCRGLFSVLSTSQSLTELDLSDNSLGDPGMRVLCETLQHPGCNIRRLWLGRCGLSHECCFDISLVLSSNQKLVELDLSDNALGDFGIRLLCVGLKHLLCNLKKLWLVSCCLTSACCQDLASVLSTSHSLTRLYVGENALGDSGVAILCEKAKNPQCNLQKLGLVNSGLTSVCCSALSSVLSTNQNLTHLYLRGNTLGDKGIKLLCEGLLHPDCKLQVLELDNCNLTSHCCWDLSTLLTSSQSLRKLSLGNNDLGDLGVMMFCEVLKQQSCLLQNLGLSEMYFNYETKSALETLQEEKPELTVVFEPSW
run description: NLRP3 inflammasome activation in LPS-primed, nigericin-activated THP1 macrophages, IL-1β AlphaLISA
protocol conditions: PMA-differentiated, 1 hr compound, Nigericin 6.7 uM 3 hrs, IL-1β in supernatant
pIC50: −log10 of the molar value.
Overview of recorded pIC50 for various compounds

Worked examples, 5 compounds total:
CN1CCC[C@@H](Nc2nnc(-c3ccc(C(F)(F)F)cc3)c3c2ncn3C)C1 [Compound 29] ... 6.00 to 6.30
CN1CCC[C@@H](Nc2nnc(-c3ccccc3C(F)F)c3cc[nH]c23)C1 [Compound 12] ... 6.30 to 7.00
CN1CCC[C@@H](N(C)c2nnc(-c3ccc(Cl)cc3)c3ccn(C)c23)C1 [Compound 82] ... 5.00 to 6.00
COCCN1CCC[C@@H](Nc2nnc(-c3ccc(C#N)cc3O)c3cnsc23)C1 [Compound 154] ... 7.00 to 8.00
Cn1ncc2c(-c3ccc(C(F)(F)F)cc3)nnc(N[C@@H]3CCCN(CC4CC4)C3)c21 [Compound 108] ... 7.00 to 8.00

input: Query (compound): CN1CCC[C@@H](N(C)c2nnc(-c3ccc(C(F)(F)F)cc3)c3ccoc23)C1 [Compound 93] ; field requested: pIC50
output: 5.00 to 6.00

input: Query (compound): CN1CCC[C@@H](N(C)c2nnc(-c3ccc(F)cc3O)c3ccsc23)C1 [Compound 98] ; field requested: pIC50
output: 6.30 to 7.00

input: Query (compound): Cn1ccc2c(-c3ccc(C#N)cc3O)nnc(N[C@@H]3CCCN(CCO)C3)c21 [Compound 147] ; field requested: pIC50
output: > 8.00

input: Query (compound): Cn1ccc2c(-c3ccc(C#N)cc3O)nnc(N[C@@H]3CCCNC3)c21 [Compound 158] ; field requested: pIC50
output: 7.00 to 8.00

input: Query (compound): CN1CCC[C@@H](N(C)c2nnc(-c3ccc(F)cc3O)c3cc[nH]c23)C1 [Compound 96] ; field requested: pIC50
output: 7.00 to 8.00

input: Query (compound): CN1CCC[C@@H](Oc2nnc(-c3ccc(C(F)(F)F)cc3)c3ccsc23)C1 [Compound 87] ; field requested: pIC50
output: 6.30 to 7.00
